Reported pKd is given for each of the following binders.
- study_target: T1, Human IL-7R-hFc antigen (R&D systems) (human, UniProt P16871 21-239)
- T1 construct: Bought from R&D Systems; not shown: human Fc (hFc) of the bought fusion
- T1 sequence (looked up): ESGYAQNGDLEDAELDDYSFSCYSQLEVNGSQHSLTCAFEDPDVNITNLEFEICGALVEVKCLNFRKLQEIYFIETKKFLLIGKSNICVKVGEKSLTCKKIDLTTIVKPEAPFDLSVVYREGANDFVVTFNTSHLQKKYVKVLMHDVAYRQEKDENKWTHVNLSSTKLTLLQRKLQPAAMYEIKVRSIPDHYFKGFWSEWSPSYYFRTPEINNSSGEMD
- method_notes: SPR (Biacore 2000/3000), IL-7R-hFc captured on anti-human Fc, antibody as analyte
Answer as the number alone; pKd is minus log10 of concentration in mol/L.

P3A9 Fab (Fab, V domains shown) VH: QVNLRESGGGLVKPGGSLRLSCAASGFTFDDSVMHWVRQAPGKGLEWLSLVGWDGSATYYADSVKGRFTISRDNTKNLLYLQMNSLRAEDTAVYYCARQGDYVFDYWGQGTLVTVSS VL: NFMLTQPHSVSGSPGKTVTISCTRSSGSIDSSYVQWYQQRPGNSPTTVIYEDDQRPSGVPDRFSGSIDSSSNSASLTISGLVTEDEADYYCQSYDSSHLVFGGGTKLTVLC : 6.69

Consider the record given below.
// query Please report pKd for the following binder: P2D2 Fab (Fab, V domains shown) VH: QVNLRESGGGLVKPGGSLRLSCAASGFTFDDSVMHWVRQAPGKGLEWLSLVGWDGFFTYYADSVKGRFTISRDNTKNLLYLQMNSLRAEDTAVYYCARQGDYVFNNWGQGTLVTVSS VL: NFMLTQPHSVSGSPGKTVTISCTRSSGSIDSSYVQWYQQRPGNSPTTVIYEDDQRPSGVPDRFSGSIDSSSNSASLTISGLVTEDEADYYCMQYDSSHLVFGGGTKLTVLC
// result 7.92
